Tgt: Fibroblast growth factor receptor 2 (Homo sapiens) (UniProt P21802)
Sequence (P21802 22-821 limits assumed): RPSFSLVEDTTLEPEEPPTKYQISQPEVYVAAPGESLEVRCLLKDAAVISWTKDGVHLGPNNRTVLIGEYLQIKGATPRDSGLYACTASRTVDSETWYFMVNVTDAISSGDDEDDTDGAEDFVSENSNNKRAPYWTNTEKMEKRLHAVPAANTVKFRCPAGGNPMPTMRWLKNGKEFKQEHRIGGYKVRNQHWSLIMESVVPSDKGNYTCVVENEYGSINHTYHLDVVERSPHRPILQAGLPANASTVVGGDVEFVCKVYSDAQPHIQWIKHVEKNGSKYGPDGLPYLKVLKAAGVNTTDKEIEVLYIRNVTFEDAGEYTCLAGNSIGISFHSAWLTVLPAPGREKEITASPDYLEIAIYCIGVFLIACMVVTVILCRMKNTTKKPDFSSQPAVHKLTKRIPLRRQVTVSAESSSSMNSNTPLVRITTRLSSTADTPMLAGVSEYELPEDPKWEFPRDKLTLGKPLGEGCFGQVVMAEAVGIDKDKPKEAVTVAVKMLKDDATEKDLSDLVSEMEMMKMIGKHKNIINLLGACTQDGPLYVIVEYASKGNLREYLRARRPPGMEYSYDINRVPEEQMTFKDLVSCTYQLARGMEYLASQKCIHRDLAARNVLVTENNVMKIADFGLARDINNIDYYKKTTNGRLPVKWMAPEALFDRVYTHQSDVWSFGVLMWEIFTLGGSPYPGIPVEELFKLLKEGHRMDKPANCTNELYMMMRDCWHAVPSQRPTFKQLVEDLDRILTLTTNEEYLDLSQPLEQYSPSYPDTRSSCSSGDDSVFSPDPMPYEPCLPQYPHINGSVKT
Experimental Setup: Compound concentration 20.0 uM
Description: Thermal Shift Assay. Domain: start/stop: T457-E768
Exercise: state measured ΔTm for each of the compounds provided.
Report the figure in °C without appending any unit label.

Name the recorded ΔTm for `NS(=O)(=O)OC[C@H]1C[C@@H](Nc2ccnc3cc(-c4cccc(SC(F)(F)F)c4)nn23)[C@H](O)[C@@H]1O` .
-0.4

Now consider `Nc1ncnc2nc(-c3ccc(N4CCOCC4)nc3)cc(-c3cccc(Br)c3)c12` and answer again.
0.52

Now consider `Fc1ccc(CNc2ncnc3ccc(F)cc23)cc1` and answer again.
-0.12

Now consider `CN(C)Cc1ccc(S(=O)(=O)n2ccc(/C=C/C(=O)NO)c2)cc1` and answer again.
0.36

Now consider COc1ccc(C(CN(C)C)C2(O)CCCCC2)cc1 (stereo not given) and answer again.
0.29

Now consider `N[C@@H](CCCCB(O)O)C(=O)O` and answer again.
0.29

Now consider `CS(=O)(=O)n1cc2c(n1)CN([C@H]1CO[C@H](c3cc(F)ccc3F)[C@@H](N)C1)C2` and answer again.
-0.38

Now consider `C[C@@H]1CN(c2nccc(Nc3ccc4c(c3)n(CCC(C)(C)O)c(=O)n4C)n2)C[C@H](C)C1(F)F` and answer again.
-0.7

Now consider `CCCCCCCCCCCCC/C=C/[C@@H](O)[C@H](CO)NC(=O)CCl` and answer again.
0.03

Now consider CCC(NC(=O)C(CC(C)C)NC(=O)OCc1ccccc1)C(=O)C(=O)NCCCN1CCOCC1 (stereo not given) and answer again.
1.24
